System: SEM cells
testSummary: cell viability relative to DMSO control; higher = less cytotoxic
conditionParameters: HPLM + 10% dialyzed FBS; 48 h; 15.4 µM
cell viability values, listed per item
Answer with the figure and its unit, nothing else.

{"molecule": "Oc1ccc(/C=C/c2cc(O)cc(O)c2)cc1", "testReadout": "cell viability", "observedResult": "97.6%"}
{"molecule": "O=C(CO)N1CCC(c2n[nH]c(-c3ccc(Cl)cc3)c2-c2ccncn2)CC1", "testReadout": "cell viability", "observedResult": "64.9%"}
{"molecule": "CCC[C@H](N[C@@H](C)C(=O)N1[C@H](C(=O)O)C[C@@H]2CCCC[C@@H]21)C(=O)OCC", "testReadout": "cell viability", "observedResult": "111%"}

Lookup: Can you look up the measured cell viability of CC(=O)NC(CS)C(=O)O (stereo not given) for me?
Found: 36.1%

Lookup: Can you look up the measured cell viability of O=C1Nc2cc(Br)ccc2/C1=C1/Nc2ccccc2/C1=N\O for me?
Found: 3.01%

###

Test system: P12-Ichikawa
testSummary: cell viability relative to DMSO control; higher = less cytotoxic
conditionParameters: RPMI 5 mM glucose + 10% FBS; 48 h; 15.4 µM
cell viability values, listed per item
Write the value in % as a bare number.

Recorded cell viability, per entry:
{"compound": "CC(C)(C)C(=O)Oc1ccc([S+](=O)([O-])Nc2ccccc2C(=O)NCC(=O)O)cc1", "testReadout": "cell viability", "unitTag": "%", "observedResult": 131}
{"compound": "CCNC(=O)c1cc2c(-c3cc(OCCN4CCCC4)c(Cl)cc3Cl)nc(N)nc2s1", "testReadout": "cell viability", "unitTag": "%", "observedResult": 34}

Attention now shifts to the item below.
Lookup: Hello, I am looking for reported cell viability with P12-Ichikawa for CC(=O)CC(C1=CC=CC=C1)C/2=C(O)/C3=CC=CC=C3OC2=O (stereo not drawn) . Could you help?
Found: 132

###

cell viability values, listed per item
Tested on: P12-Ichikawa
testSummary: cell viability relative to DMSO control; higher = less cytotoxic
conditionParameters: HPLM + 10% dialyzed FBS; 48 h; 46.1 µM
Write the value in % as a bare number.

{"compound": "C[C@@]12O[C@@H](C[C@]1(O)CO)n1c3ccccc3c3c4c(c5c6ccccc6n2c5c31)CNC4=O", "unitTag": "%", "cell viability": 12.9}

Lookup: Can you look up the measured cell viability of O=C(O)c1ccc(-n2nc(-c3ccccc3O)nc2-c2ccccc2O)cc1 for me?
Found: 48.9

Lookup: Can you look up the measured cell viability of CCC1(c2ccc(N)cc2)CCC(=O)NC1=O (stereo not given) for me?
Found: 91.7

Lookup: Can you look up the measured cell viability of CCN(CC)C(=S)SSC(=S)N(CC)CC for me?
Found: 9.15

Lookup: Can you look up the measured cell viability of CCc1c(C(=O)C(N)=O)c2c(OCC(=O)O)cccc2n1Cc1ccccc1 for me?
Found: 99.5

Lookup: Can you look up the measured cell viability of CCOC(=O)N1CCN(/[N+]([O-])=N/Oc2ccc([N+](=O)[O-])cc2[N+](=O)[O-])CC1 for me?
Found: 27.1

Lookup: Can you look up the measured cell viability of CCC(=O)OCC(=O)[C@@]1(OC(=O)CC)[C@@H](C)C[C@H]2[C@@H]3CCC4=CC(=O)C=C[C@]4(C)[C@@]3(F)[C@@H](O)C[C@@]21C for me?
Found: 6.01

Lookup: Can you look up the measured cell viability of C[C@@H]1COCCN1C\2=C\C(=O)N\3CC[C@H](N(CC4=CN=CC(=C4)Cl)C3=N2)C(F)(F)F for me?
Found: 22.5

Lookup: Can you look up the measured cell viability of CC[C@H]1/C=C\C=C/C[C@@H](C)[C@H](O)[C@@](C)(O)C(=O)[C@@H](C)[C@H](O)[C@@H](C)C(=O)[C@@H](C)[C@H](O)[C@@H](C)/C=C/C(=O)O[C@@H]2[C@H](C)[C@H](CC1)O[C@]1(CC[C@H](C)[C@H](C[C@@H](C)O)O1)[C@H]2C for me?
Found: 4.23

Lookup: Can you look up the measured cell viability of CCCCCCCc1ccc(CCc2cccc(O)c2C(=O)O)cc1 for me?
Found: 90.2

###

cell viability values, listed per item
Test system: SEM cells
testSummary: cell viability relative to DMSO control; higher = less cytotoxic
conditionParameters: RPMI 5 mM glucose + 10% dialyzed FBS; 48 h; 0.0211 µM
Answer with the figure and its unit, nothing else.

{"compound": "C[C@H]1C[C@H]2[C@@H]3CCC4=CC(=O)C=C[C@]4(C)[C@@]3(F)[C@@H](O)C[C@]2(C)[C@@]1(O)C(=O)CO", "cell viability": "93.6%"}

Lookup: Can you look up the measured cell viability of CCOC(=O)N1CCN(/[N+]([O-])=N/Oc2ccc([N+](=O)[O-])cc2[N+](=O)[O-])CC1 for me?
Found: 88.2%

Lookup: Can you look up the measured cell viability of O=C(NC[C@H]1CN(c2ccc(N3CCOCC3=O)cc2)C(=O)O1)c1ccc(Cl)s1 for me?
Found: 98.9%

Lookup: Can you look up the measured cell viability of C[N+]1(C)[C@@H]2C[C@@H](OC(=O)[C@H](CO)c3ccccc3)C[C@H]1[C@@H]1O[C@@H]12.[Br-] for me?
Found: 98.6%

Lookup: Can you look up the measured cell viability of CCC(=O)OCC(=O)[C@@]1(OC(=O)CC)[C@@H](C)C[C@H]2[C@@H]3CCC4=CC(=O)C=C[C@]4(C)[C@@]3(F)[C@@H](O)C[C@@]21C for me?
Found: 112%

Lookup: Can you look up the measured cell viability of Cn1c(Nc2ccc(C(F)(F)F)cc2)nc2cc(Oc3ccnc(-c4nc(C(F)(F)F)c[nH]4)c3)ccc21 for me?
Found: 102%

Lookup: Can you look up the measured cell viability of CC(C)n1nc(-c2ccc3oc(N)nc3c2)c2c(N)ncnc21 for me?
Found: 54.8%

Lookup: Can you look up the measured cell viability of C[C@@H](O)[C@@H]1[C@H]2[C@@H](C)\C(=C(/N2C1=O)C(=O)OCOC(=O)C(C)(C)C)SC3CN(C3)/C4=N/CCS4 for me?
Found: 113%

Lookup: Can you look up the measured cell viability of COc1cc2nc(N3CCCN(C)CC3)nc(NC3CCN(Cc4ccccc4)CC3)c2cc1OC for me?
Found: 104%

Lookup: Can you look up the measured cell viability of CCOc1ccc(Nc2nc(-c3c(C)nc4ccccn34)cs2)cc1 for me?
Found: 110%

Lookup: Can you look up the measured cell viability of Cc1cccc(C)c1OCC(=O)N[C@@H](Cc1ccccc1)[C@@H](O)C[C@H](Cc1ccccc1)NC(=O)[C@H](C(C)C)N1CCCNC1=O for me?
Found: 102%

Lookup: Can you look up the measured cell viability of [NH2][Pt]([NH2])([Cl])[Cl] for me?
Found: 89.5%

Lookup: Can you look up the measured cell viability of CC(=O)CC(C1=CC=CC=C1)C/2=C(O)/C3=CC=CC=C3OC2=O (stereo unspecified) for me?
Found: 73.4%

Lookup: Can you look up the measured cell viability of CC(C)Oc1cc(Nc2nc(N[C@@H](C)c3ccc(F)cn3)ncc2Cl)n[nH]1 for me?
Found: 114%

###

Tested on: NOMO1
testSummary: cell viability relative to DMSO control; higher = less cytotoxic
conditionParameters: RPMI 5 mM glucose + 10% dialyzed FBS; 48 h; 0.000781 µM
testReadout: cell viability (%)
Write the value in % as a bare number.

Recorded cell viability, per entry:
{"compound": "CCC1(c2ccc(N)cc2)CCC(=O)NC1=O (configuration not stated)", "unitTag": "%", "cell viability": 114}
{"compound": "CC(C)[C@@H](C[S+](=O)([O-])C(C)C)N1C(=O)[C@@](C)(CC(=O)O)C[C@H](c2cccc(Cl)c2)[C@H]1c1ccc(Cl)cc1", "unitTag": "%", "cell viability": 117}
{"compound": "O=C(Nc1cccc(Nc2ncc(Br)c(NCCc3cnc[nH]3)n2)c1)N1CCCC1", "unitTag": "%", "cell viability": 103}
{"compound": "OC(=O)\\C1=C\\N(C2=CC=C(F)C=C2)C3=C(C=C(F)C(=C3)N4CCNCC4)C1=O", "unitTag": "%", "cell viability": 107}
{"compound": "C\\C1=C\\C(=O)C2=C(C=CC=C2)C1=O", "unitTag": "%", "cell viability": 119}

Lookup: Can you look up the measured cell viability of C1CCC(C(CC2CCCCN2)C2CCCCC2)CC1 (configuration not stated) for me?
Found: 110

Lookup: Can you look up the measured cell viability of CCOC(=O)[C@H](CCc1ccccc1)N[C@@H](C)C(=O)N1CCC[C@H]1C(=O)O for me?
Found: 97.9

Lookup: Can you look up the measured cell viability of O=C(O)c1ccc(-n2nc(-c3ccccc3O)nc2-c2ccccc2O)cc1 for me?
Found: 94.3

Lookup: Can you look up the measured cell viability of CC(=O)CC(C1=CC=CC=C1)C/2=C(O)/C3=CC=CC=C3OC2=O (configuration not stated) for me?
Found: 109

Lookup: Can you look up the measured cell viability of CN(C)C(=O)c1ccc([S+](=O)([O-])c2ccc(NC(=O)[C@@](C)(O)C(F)(F)F)c(Cl)c2)cc1 for me?
Found: 95.9

Lookup: Can you look up the measured cell viability of CCNC(=O)c1cc2c(-c3cc(OCCN4CCCC4)c(Cl)cc3Cl)nc(N)nc2s1 for me?
Found: 107

Lookup: Can you look up the measured cell viability of CCC(=O)OCC(=O)[C@@]1(OC(=O)CC)[C@@H](C)C[C@H]2[C@@H]3CCC4=CC(=O)C=C[C@]4(C)[C@@]3(F)[C@@H](O)C[C@@]21C for me?
Found: 110

Lookup: Can you look up the measured cell viability of N[S+](=O)([O-])c1cc(Cl)c(Cl)c([S+](N)(=O)[O-])c1 for me?
Found: 97.9
